- Test system: OVCAR-3
- Assay remarks: Cytotoxicity against human OVCAR3 cells assessed as cell growth at 0.1 uM after 48 hrs by sulforhodamine B assay relative to control
- Assay type: functional
- Condition info: OVCAR-3, 48 h, read-out: Activity
Reported growth at 0.1 µM values are given for each entry in this list.
Value type: growth at 0.1 µM (%)

INSERT INTO measurements (compound, result) VALUES
  ('COc1cc(C(=O)/C=C/c2cc(-c3cc(OC)c(OC)c(OC)c3)n[nH]2)cc(OC)c1OC', 105),
  ('COc1ccc(-c2cc(/C=C/C(=O)c3ccc(OC)c(OC)c3)[nH]n2)cc1', 104),
  ('COc1cc2c(cc1OC)C(=O)/C(=C/c1cc(-c3ccc4c(c3)OCO4)n[nH]1)C2', 101),
  ('COc1ccc(-c2cc(/C=C/C(=O)c3cc(OC)c(OC)c(OC)c3)[nH]n2)cc1OC', 100),
  ('COc1cc(C(=O)/C=C/c2cc(-c3ccc4c(c3)OCO4)n[nH]2)cc(OC)c1OC', 100),
  ('COc1ccc(C(=O)/C=C/c2cc(-c3ccc4c(c3)OCO4)n[nH]2)cc1OC', 104),
  ('COc1cc(-c2cc(/C=C/C(=O)c3ccc(F)c(F)c3)[nH]n2)cc(OC)c1OC', 104);

Values compiled from ChEMBL document CHEMBL4138123.
